Biological target: Cytochrome P450 11B1, mitochondrial (Homo sapiens)
Sequence (P15538 whole entry): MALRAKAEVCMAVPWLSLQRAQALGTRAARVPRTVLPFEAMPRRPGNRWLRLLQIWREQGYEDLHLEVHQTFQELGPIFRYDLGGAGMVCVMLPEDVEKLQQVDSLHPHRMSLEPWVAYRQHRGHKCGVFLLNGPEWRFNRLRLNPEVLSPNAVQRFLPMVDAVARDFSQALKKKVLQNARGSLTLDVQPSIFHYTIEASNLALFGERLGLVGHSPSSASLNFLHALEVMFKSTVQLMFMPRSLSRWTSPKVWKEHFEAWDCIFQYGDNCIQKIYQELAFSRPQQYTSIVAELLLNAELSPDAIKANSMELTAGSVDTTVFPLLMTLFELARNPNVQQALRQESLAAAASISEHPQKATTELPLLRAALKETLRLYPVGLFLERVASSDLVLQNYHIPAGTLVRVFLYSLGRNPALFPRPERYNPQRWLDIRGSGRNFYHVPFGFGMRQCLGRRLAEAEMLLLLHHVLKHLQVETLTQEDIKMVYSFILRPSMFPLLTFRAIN
Assay: Inhibition of human CYP11B1 expressed in hamster V79 MZh cells using deoxycorticosterone substrate
measure: log10 IC50 (log10 of the value in nM)
Heads up: the numbers are on a log10 scale; they represent IC50 in nM.

Record log10 IC50 per entry; entries follow.
1. COc1ccc(C(c2cc3c4c(c2)CCN4C(=O)CC3)n2ccnc2)cc1 (centres undefined)
2. N#Cc1cccc(C(c2cc3c4c(c2)CCN4C(=O)CC3)n2ccnc2)c1 (centres undefined)
3. O=C1CCc2cc(C(C3CC3)n3ccnc3)cc3c2N1CC3 (single isomer, unassigned; (-))

[1.60, 2.16, 0.18]

Record log10 IC50 per entry; entries follow.
1. CC(c1cc2c3c(c1)CCN3C(=O)CC2)n1ccnc1 (centres undefined)
2. C=C(c1cc2c3c(c1)CCN3C(=O)CC2)n1ccnc1
3. O=C1CCc2cc(C(C3CCC3)n3ccnc3)cc3c2N1CC3 (centres undefined)
4. O=C1CCc2cc(C(c3ccccc3F)n3ccnc3)cc3c2N1CC3 (centres undefined)
5. O=C1CCc2cc(C(C3CC3)n3ccnc3)cc3c2N1CC3 (stereo in doubt; (+)-4)
6. CC(C)C(c1cc2c3c(c1)CCN3C(=O)CC2)n1ccnc1 (centres undefined)

1: 1.23; 2: 1.28; 3: 0.53; 4: 1.60; 5: 1.01; 6: 0.15

Record log10 IC50 per entry; entries follow.
1. CCC(c1cc2c3c(c1)CCN3C(=O)CC2)n1ccnc1 (centres undefined)
2. CC(c1cc2c3c(c1)CCN3C(=O)CC2)(n1ccnc1)n1ccnc1
3. O=C1CCc2cc(C(c3ccccc3)n3ccnc3)cc3c2N1CC3 (centres undefined)
4. O=C1CCc2cc(C(c3cccs3)n3ccnc3)cc3c2N1CC3 (centres undefined)
5. COc1cccc(C(c2cc3c4c(c2)CCN4C(=O)CC3)n2ccnc2)c1 (centres undefined)

0.81
2.64
1.70
1.11
2.04
